- target-or-test-system: Rho-associated protein kinase 2 (Homo sapiens, UniProt O75116); also: in the data inactive means no Kd found up to 30 µM
- Sequence (O75116 whole entry): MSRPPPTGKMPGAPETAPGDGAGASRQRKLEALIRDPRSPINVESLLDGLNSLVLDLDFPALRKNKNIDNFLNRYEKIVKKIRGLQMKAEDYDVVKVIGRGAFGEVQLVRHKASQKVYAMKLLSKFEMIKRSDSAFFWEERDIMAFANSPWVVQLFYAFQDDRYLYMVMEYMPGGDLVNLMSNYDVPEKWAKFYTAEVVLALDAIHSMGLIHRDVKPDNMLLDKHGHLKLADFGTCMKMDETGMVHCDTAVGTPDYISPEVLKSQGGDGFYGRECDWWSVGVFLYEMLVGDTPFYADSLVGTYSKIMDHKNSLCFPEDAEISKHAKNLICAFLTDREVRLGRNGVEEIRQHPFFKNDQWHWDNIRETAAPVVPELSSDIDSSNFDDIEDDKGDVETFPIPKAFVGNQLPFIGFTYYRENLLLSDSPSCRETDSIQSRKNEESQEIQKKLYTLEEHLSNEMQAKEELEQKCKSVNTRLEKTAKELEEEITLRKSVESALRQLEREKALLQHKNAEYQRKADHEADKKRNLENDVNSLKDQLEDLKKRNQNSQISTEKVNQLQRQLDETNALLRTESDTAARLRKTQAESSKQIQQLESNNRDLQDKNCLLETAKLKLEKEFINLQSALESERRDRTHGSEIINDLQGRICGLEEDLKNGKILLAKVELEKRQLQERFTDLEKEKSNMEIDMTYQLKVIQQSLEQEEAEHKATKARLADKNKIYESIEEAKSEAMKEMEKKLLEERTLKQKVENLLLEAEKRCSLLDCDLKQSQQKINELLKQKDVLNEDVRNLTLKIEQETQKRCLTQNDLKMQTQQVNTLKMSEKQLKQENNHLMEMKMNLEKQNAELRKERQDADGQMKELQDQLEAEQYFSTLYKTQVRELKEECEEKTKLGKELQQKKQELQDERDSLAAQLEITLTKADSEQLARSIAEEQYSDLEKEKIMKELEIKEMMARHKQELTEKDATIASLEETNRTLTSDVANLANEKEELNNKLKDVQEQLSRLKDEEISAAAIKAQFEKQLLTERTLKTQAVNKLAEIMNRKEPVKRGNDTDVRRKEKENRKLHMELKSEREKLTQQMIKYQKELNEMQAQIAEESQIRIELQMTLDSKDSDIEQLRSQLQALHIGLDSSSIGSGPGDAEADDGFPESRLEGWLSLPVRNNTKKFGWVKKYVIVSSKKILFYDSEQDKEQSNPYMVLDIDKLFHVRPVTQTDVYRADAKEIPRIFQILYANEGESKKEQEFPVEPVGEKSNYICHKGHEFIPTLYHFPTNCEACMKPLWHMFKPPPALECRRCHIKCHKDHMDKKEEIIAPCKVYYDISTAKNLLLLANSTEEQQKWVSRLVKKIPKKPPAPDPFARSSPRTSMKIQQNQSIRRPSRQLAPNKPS
Calls of active or inactive are those of the source.
The reply should name one outcome from TRUE = active, FALSE = inactive

Cn1cc(-c2cnn3c(N)c(Br)c([C@@H]4CCCNC4)nc23)cn1
FALSE
C[C@H]1CNCCCN1S(=O)(=O)c1cccc2cncc(F)c12
TRUE
CCCCCCCCCCCCCCCCCCOP(=O)([O-])OC1CC[N+](C)(C)CC1
FALSE
COCC(=O)NC/C=C/c1ccc2ncnc(Nc3ccc(Oc4ccc(C)nc4)c(C)c3)c2c1
FALSE
C=CC(=O)N1CCC[C@H](n2c(=O)n(-c3ccc(Oc4ccccc4)cc3)c3c(N)ncnc32)C1
FALSE

Query string: Name the outcome recorded for CO[C@H]1C[C@@H]2CC[C@@H](C)[C@@](O)(O2)C(=O)C(=O)N2CCCC[C@H]2C(=O)O[C@H]([C@H](C)C[C@@H]2CC[C@@H](OP(C)(C)=O)[C@H](OC)C2)CC(=O)[C@H](C)/C=C(\C)[C@@H](O)[C@@H](OC)C(=O)[C@H](C)C[C@H](C)/C=C/C=C/C=C/1C in the assay.
Result string: FALSE

Query string: Name the outcome recorded for Cn1cnc2c(F)c(Nc3ccc(Br)cc3F)c(C(=O)NOCCO)cc21 in the assay.
Result string: FALSE
